- Test system: Mycobacterium kansasii
- METHOD: Antimycobacterial activity against Mycobacterium kansasii DSM 44162 after 7 days by two-fold serial dilution method
- Type: functional
- CONDITION_NOTES: DSM 44162, 168 h
RECORDED_METRIC: MIC

Some solved entries appear below for comparison.
Form field MIC, entry O=C(Nc1ccccc1F)c1ccc2ccccc2c1O : > 910 µM

Form field MIC, entry O=C(Nc1ccccc1C(F)(F)F)c1ccc2ccccc2c1O : > 773 µM

Form field MIC, entry O=C(Nc1cccc([N+](=O)[O-])c1)c1ccc2ccccc2c1O : > 830 µM

More entries:
Form field MIC, entry COc1ccc(NC(=O)c2ccc3ccccc3c2O)cc1 : > 873 µM
